The reported measurements were obtained from the supplement of paper PMC9262897.

- Test system: E. coli TESEC Mtb DapB
- experimental details: growth (OD600 after 10 h); higher = more growth (less inhibition)
- protocol conditions: arabinose induction (level): Low; compound 0.1 mM; raw OD600 reference: median of DMSO wells 0.227, cell-free background 0.041
Structures can show the parent of a compound that is named as a salt.
// Not met strictly below 0.2 in growth; Met otherwise

{"compound": "COCC(=O)Nc1c(I)c(C(=O)NCC(O)CO)c(I)c(C(=O)N(C)CC(O)CO)c1I (configuration not stated) [Iopromide]", "class name": "Met"}
{"compound": "CCc1nc(N)nc(N)c1-c1ccc(Cl)cc1", "class name": "Not met"}
{"compound": "O=C(OCC(O)CO)c1ccccc1Nc1ccnc2cc(Cl)ccc12 (configuration not stated) [Glafenine hydrochloride]", "class name": "Met"}
{"compound": "Cc1ccc(Cl)c(Nc2ccccc2C(=O)O)c1Cl [Meclofenamic acid sodium salt monohydrate]", "class name": "Not met"}
{"compound": "COc1cc(NS(=O)(=O)c2ccc(N)cc2)ncn1", "class name": "Not met"}
{"compound": "O=C(O)[C@H]1/C(=C/CO)O[C@@H]2CC(=O)N21 [Clavulanate potassium salt]", "class name": "Not met"}
{"compound": "O=C(CCCCC(=O)Nc1c(I)cc(I)c(C(=O)O)c1I)Nc1c(I)cc(I)c(C(=O)O)c1I [Iodipamide]", "class name": "Met"}
{"compound": "COc1ccc2cc([C@@H](C)C(=O)O)ccc2c1 [(R) -Naproxen sodium salt]", "class name": "Met"}
{"compound": "CC(C)(C)CC(C)(C)c1ccc(OCCOCC[N+](C)(C)Cc2ccccc2)cc1 [Benzethonium chloride]", "class name": "Not met"}
{"compound": "CN(C)C(=N)NC(=N)N [Metformin hydrochloride]", "class name": "Met"}
{"compound": "CS(=O)(=O)c1ccc([C@@H](O)[C@@H](CF)NC(=O)C(Cl)Cl)cc1", "class name": "Not met"}
{"compound": "CCN1CCN(C(=O)N[C@@H](C(=O)N[C@@H]2C(=O)N3C(C(=O)O)=C(CSc4nnnn4C)CS[C@H]23)c2ccc(O)cc2)C(=O)C1=O [Cefoperazone dihydrate]", "class name": "Met"}
{"compound": "CN1CCN(C2=Nc3ccccc3Oc3ccc(Cl)cc32)CC1 [Loxapine succinate]", "class name": "Met"}
{"compound": "Cc1ccc(-c2cc(C(F)(F)F)nn2-c2ccc(S(N)(=O)=O)cc2)cc1", "class name": "Not met"}
{"compound": "CCn1cc(C(=O)O)c(=O)c2cc(F)c(N3CCNC(C)C3)c(F)c21 (configuration not stated) [Lomefloxacin hydrochloride]", "class name": "Not met"}
{"compound": "COc1ncnc(NS(=O)(=O)c2ccc(N)cc2)c1OC", "class name": "Met"}
{"compound": "CCCCCCCCNC(C)C(O)c1ccc(SC(C)C)cc1 (configuration not stated)", "class name": "Not met"}
{"compound": "COc1ccc2c(c1)c(CC(=O)O)c(C)n2C(=O)c1ccc(Cl)cc1", "class name": "Met"}
{"compound": "O=C1c2ccccc2S(=O)(=O)N1CCCCN1CCN(c2ncccn2)CC1", "class name": "Met"}
{"compound": "COc1ccc(CCN(C)CCCC(C#N)(c2ccc(OC)c(OC)c2)C(C)C)cc1OC (configuration not stated) [Verapamil hydrochloride]", "class name": "Met"}
{"compound": "CC(=O)/N=c1/sc(S(N)(=O)=O)nn1C [Methazolamide]", "class name": "Met"}
